system: Mus musculus; experiment: Anticonvulsant activity in Kunming mouse assessed as protection against subcutaneous pentylenetetrazole-induced seizure at 300 mg/kg, ip after 0.5 hrs; assay type: functional, organism-based; design: dose 300 mg/kg
Activity calls are given as the source filed them. The calls are words filed in the database; no cut-off is given here.
Value kind: Activity

| Compound | Measured value |
| --- | --- |
| Cc1ccc(N2C(=O)NC3(CC3c3ccc4cccc(OCc5ccccc5)c4n3)C2=O)cc1 (racemic) | inactive |
| O=C1NC2(CC2c2ccc3cccc(OCc4ccccc4)c3n2)C(=O)N1c1ccc(Cl)cc1 (racemic) | inactive |
| O=C1NC2(CC2c2ccc3cccc(OCc4ccccc4)c3n2)C(=O)N1c1ccc(F)cc1 (racemic) | inactive |
| O=C1NC2(CC2c2ccc3cccc(OCc4ccccc4)c3n2)C(=O)N1c1ccc(C(F)(F)F)cc1 (racemic) | inactive |
| O=C1NC(=O)C(c2ccccc2)(c2ccccc2)N1 | inactive |
| O=C1NC2(CC2c2ccc3cccc(OCc4ccccc4)c3n2)C(=O)N1c1ccc(Br)cc1 (racemic) | inactive |
| CN1C(=O)NC2(CC2c2ccc3cccc(OCc4ccccc4)c3n2)C1=O (racemic) | inactive |
| CCCCN1C(=O)NC2(CC2c2ccc3cccc(OCc4ccccc4)c3n2)C1=O (racemic) | inactive |
| O=C1NC2(CC2c2ccc3cccc(OCc4ccccc4)c3n2)C(=O)N1c1ccccc1 (racemic) | inactive |
